Biological target: human r1 receptors (GABAC receptors) (Homo sapiens)
Assay: Two-electrode voltage clamp recording of human r1 GABAC receptors expressed in Xenopus oocytes
observed_property: nH (Hill Coefficient)
Write the value as a bare number.

{"molecule": "CP(=O)(O)CCCN", "nH (Hill Coefficient)": 1.8}
{"molecule": "CP(=O)(O)/C=C/CN", "nH (Hill Coefficient)": 2.4}

Entry NC/C=C/C(=O)O [TACA, trans-4-aminocrotonic acid] , nH (Hill Coefficient) reported as 2.4

Entry NC/C=C/[PH](=O)O [CGP38593, [(E)-3-aminopropen-1-yl]phosphinic acid] , nH (Hill Coefficient) reported as 1.8

Entry NCCCC(=O)O , nH (Hill Coefficient) reported as 2.6

---

Target: UniProt P24046
observed_property: pIC50
Kindly note that pIC50 refers to -log10 of the concentration in mol/L and answer with the value alone.

Entry NCCC[PH](=O)O [CGP27492, 3-aminopropylphosphinic acid] , pIC50 reported as 5.61

Entry CP(=O)(O)C1CCNCC1 [PMPA, piperidine-4-(methyl)phosphinic acid] , pIC50 reported as 5.22

Entry CP(=O)(O)CCCN [CGP35024, (3-aminopropyl)methylphosphinic acid] , pIC50 reported as 6.12

---

Molecular target: human r1 receptors (GABAC receptors) (Homo sapiens, UniProt P24046)
Sequence (P24046 22-479): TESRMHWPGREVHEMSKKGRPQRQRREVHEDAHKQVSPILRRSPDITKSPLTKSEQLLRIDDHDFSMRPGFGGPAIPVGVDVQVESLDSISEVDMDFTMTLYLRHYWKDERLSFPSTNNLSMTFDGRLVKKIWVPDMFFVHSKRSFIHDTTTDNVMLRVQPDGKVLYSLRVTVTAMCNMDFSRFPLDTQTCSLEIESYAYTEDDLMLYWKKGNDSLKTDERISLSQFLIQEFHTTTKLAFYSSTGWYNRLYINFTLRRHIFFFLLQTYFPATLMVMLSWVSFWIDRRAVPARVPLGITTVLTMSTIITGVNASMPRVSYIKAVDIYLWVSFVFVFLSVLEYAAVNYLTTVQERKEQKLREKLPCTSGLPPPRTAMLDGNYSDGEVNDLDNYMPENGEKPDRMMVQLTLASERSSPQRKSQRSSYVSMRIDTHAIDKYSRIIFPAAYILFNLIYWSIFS
Experiment: Two-electrode voltage clamp recording of human r1 GABAC receptors expressed in Xenopus oocytes
observed_property: nH (Hill Coefficient)
Write the value as a bare number.

{"compound": "CP(=O)(O)/C=C\\CN [CGP70523]", "nH (Hill Coefficient)": 1.6}
{"compound": "NC/C=C\\C(=O)O [CACA, cis-4-aminocrotonic acid]", "nH (Hill Coefficient)": 2.2}

The compound NCCC[PH](=O)O [CGP27492, 3-aminopropylphosphinic acid] on human r1 receptors (GABAC receptors) (Homo sapiens, UniProt P24046): nH (Hill Coefficient) was 1.9

---

Target: GABAB (Rattus norvegicus, UniProt Q9Z0U4)
Sequence (Q9Z0U4 17-960 limits assumed): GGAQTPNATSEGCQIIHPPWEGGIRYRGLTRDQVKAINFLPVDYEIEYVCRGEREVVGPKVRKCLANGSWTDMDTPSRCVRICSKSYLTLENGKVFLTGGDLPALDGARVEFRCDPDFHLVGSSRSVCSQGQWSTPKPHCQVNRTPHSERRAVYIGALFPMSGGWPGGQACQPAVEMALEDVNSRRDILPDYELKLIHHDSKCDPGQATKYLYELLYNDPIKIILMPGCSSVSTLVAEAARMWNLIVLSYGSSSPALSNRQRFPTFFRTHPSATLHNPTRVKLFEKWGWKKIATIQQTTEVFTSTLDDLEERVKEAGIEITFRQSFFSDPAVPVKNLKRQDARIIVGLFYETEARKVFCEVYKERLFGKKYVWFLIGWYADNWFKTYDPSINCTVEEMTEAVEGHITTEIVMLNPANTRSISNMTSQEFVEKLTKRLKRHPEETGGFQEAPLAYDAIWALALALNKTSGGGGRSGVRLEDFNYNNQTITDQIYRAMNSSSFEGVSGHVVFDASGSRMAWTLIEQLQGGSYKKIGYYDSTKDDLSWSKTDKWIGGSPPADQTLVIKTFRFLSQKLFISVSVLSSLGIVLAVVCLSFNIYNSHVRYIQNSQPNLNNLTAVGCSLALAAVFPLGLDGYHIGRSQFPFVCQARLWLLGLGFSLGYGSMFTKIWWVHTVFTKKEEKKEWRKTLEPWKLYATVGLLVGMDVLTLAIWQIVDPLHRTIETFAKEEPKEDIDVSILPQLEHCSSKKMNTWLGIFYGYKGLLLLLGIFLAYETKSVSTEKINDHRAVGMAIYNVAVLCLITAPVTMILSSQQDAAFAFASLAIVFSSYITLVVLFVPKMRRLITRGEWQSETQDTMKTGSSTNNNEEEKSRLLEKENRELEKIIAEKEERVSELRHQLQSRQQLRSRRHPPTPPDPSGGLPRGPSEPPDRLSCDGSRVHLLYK
Sequence (O88871 41-940 partner): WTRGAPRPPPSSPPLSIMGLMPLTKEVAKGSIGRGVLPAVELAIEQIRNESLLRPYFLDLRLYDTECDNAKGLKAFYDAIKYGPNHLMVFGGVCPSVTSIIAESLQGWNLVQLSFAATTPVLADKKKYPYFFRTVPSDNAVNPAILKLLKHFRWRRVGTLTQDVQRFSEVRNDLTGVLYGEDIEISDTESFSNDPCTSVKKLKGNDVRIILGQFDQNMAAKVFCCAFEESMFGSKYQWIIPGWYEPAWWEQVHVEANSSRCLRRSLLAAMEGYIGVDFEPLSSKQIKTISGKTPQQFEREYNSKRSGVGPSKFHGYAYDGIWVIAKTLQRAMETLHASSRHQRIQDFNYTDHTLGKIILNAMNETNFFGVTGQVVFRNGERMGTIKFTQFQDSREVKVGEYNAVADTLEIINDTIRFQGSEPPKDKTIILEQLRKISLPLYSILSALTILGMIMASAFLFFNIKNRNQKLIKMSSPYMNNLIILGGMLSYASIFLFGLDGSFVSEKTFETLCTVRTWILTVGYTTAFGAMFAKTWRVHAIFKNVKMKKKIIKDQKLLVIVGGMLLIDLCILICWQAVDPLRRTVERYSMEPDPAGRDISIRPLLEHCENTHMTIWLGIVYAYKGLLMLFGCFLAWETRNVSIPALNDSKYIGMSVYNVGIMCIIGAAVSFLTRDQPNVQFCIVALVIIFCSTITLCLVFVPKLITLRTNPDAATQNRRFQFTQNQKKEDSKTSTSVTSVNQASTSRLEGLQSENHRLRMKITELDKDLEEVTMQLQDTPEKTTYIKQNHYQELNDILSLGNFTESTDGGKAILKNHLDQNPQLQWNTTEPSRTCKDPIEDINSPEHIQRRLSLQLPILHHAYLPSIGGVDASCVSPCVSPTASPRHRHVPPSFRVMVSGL
Experiment: Frequency of spontaneous discharges in neocortical slices, grease-gap recording
Parameters: from tissue; host or cells: rat cortical membranes / neocortical slices; values largely from the literature
Details: read-out: GABAB receptor affinity
observed_property: IC50

Entry CP(=O)(O)C1CCNCC1 , IC50 reported as > 1000 µM

---

Here the recorded Kb is given for each entry.
Molecular target: human r1 receptors (GABAC receptors) (Homo sapiens, UniProt P24046)
Test: Two-electrode voltage clamp recording of human r1 GABAC receptors expressed in Xenopus oocytes
API: value field is a number in µM; no unit string.

// solved cases for Kb follow
{"molecule": "CP(=O)(O)CCCN", "Kb / µM": 0.58}
{"molecule": "NC/C=C/[PH](=O)O [CGP38593, [(E)-3-aminopropen-1-yl]phosphinic acid]", "Kb / µM": 15.5}
{"molecule": "CP(=O)(O)C1CCNCC1", "Kb / µM": 6}
{"molecule": "CP(=O)(O)/C=C/CN", "Kb / µM": 8.6}
{"molecule": "NCCC[PH](=O)O", "Kb / µM": 3.2}

The molecule CP(=O)(O)C1=CCNCC1 on human r1 receptors (GABAC receptors) (Homo sapiens, UniProt P24046): Kb was 2

---

Biological target: human r1 receptors (GABAC receptors) (Homo sapiens)
Experiment: Two-electrode voltage clamp recording of human r1 GABAC receptors expressed in Xenopus oocytes
Settings: [Antagonist] 30 μM
Here the recorded nH of GABA curve in the presence of antagonist is given for each entry.

{"compound": "NC/C=C/[PH](=O)O [CGP38593, [(E)-3-aminopropen-1-yl]phosphinic acid]", "reported_measurement": "2.7 ± 0.1"}
{"compound": "NCCC[PH](=O)O [CGP27492, 3-aminopropylphosphinic acid]", "reported_measurement": "2.4 ± 0.3"}

Entry CP(=O)(O)CCCN [CGP35024, (3-aminopropyl)methylphosphinic acid] , nH of GABA curve in the presence of antagonist reported as 1.9 ± 0.2

Entry CP(=O)(O)/C=C/CN [CGP44530] , nH of GABA curve in the presence of antagonist reported as 3.0 ± 0.1

---

Target: human r1 receptors (GABAC receptors) (Homo sapiens, UniProt P24046)
Assay: Two-electrode voltage clamp recording of human r1 GABAC receptors expressed in Xenopus oocytes
Here the recorded Slope of Schild Plot is given for each entry.
Write the value as a bare number.

Entry NCCC[PH](=O)O , Slope of Schild Plot reported as 0.99

Entry CP(=O)(O)/C=C/CN , Slope of Schild Plot reported as 1.01

Entry CP(=O)(O)CCCN , Slope of Schild Plot reported as 1.14

Entry NC/C=C/[PH](=O)O [CGP38593, [(E)-3-aminopropen-1-yl]phosphinic acid] , Slope of Schild Plot reported as 0.95

# credit: patent US6632806B1
